Value source: PubChem BioAssay (NCI)

- procedureSummary: NCI Yeast Anticancer Drug Screen. Data for the mlh1 rad18 strain (AID 175)
- protocolConditions: S. cerevisiae mlh1 rad18 strain growth inhibition; at 50.0 µM; stronger effect = higher value
About 79,000 compounds went through this panel and 15% of them were active in at least one assay; those are over-represented in the sample as a whole.
Listing of entries alongside the reported growth inhibition.
Note: unit % is implicit; provide only the numeric part.

Observe how each entry below is paired with its result.
- Cc1ccc(C)c2c(CC(=O)O)c[nH]c12: -2.5
- ClCCOCOc1ccc2ccccc2c1: 26.9
- O=C(Nc1cccc2ccccc12)Oc1cccc2cccnc12: 98

The compound listed as COc1c(O)c(O)c2c(c1O)C(=O)c1cc(C)cc(O)c1C2=O has a reported growth inhibition of -19.4

The compound listed as CC(=O)N=c1ccc2nc(N)nn(O)c-2c1 has a reported growth inhibition of -26.6

----------
- procedureSummary: NCI Yeast Anticancer Drug Screen. Data for the mlh1 rad18 strain (AID 175)
- protocolConditions: S. cerevisiae mlh1 rad18 strain growth inhibition; at 50.0 µM; stronger effect = higher value
- Procedure: Growth inhibition of yeast strains with defined genetic alterations is measured as a screen for potential anti-cancer activity. Selected strains with alterations in DNA damage repair or cell cycle control were exposed to compounds and growth inhibition was measured relative to vehicle treated controls. The strain used in this assay is mlh1 rad18
The panel holds about 79,000 compounds, 15% with a hit somewhere; the sample as a whole holds those more often.
propertyMeasured: growth inhibition (%)
Note: unit % is implicit; provide only the numeric part.

Observe how each entry below is paired with its result.
- CC(C)(C#N)C(C)(C)c1cnc2ccccc2c1: -12.4
- O=Cc1ccc(C(=O)O)cc1: -9.6
- CCCCC(C)NC(=O)c1ccccc1 (stereo unspecified): 2
- CC1(O)C=CC2CCC1C2O (stereo unspecified): 19.6
- CCCCN(CCCC)CC(O)c1cc(-c2ccc(C(F)(F)F)cc2)nc(-c2ccc(C(F)(F)F)cc2)c1 (stereo unspecified): 82.3

Shifting focus to the compound that follows.
The compound listed as O=C(CO)CC(=O)C(=O)Nc1nc([N+](=O)[O-])cs1 has a reported growth inhibition of -21.5

----------
- procedureSummary: NCI Yeast Anticancer Drug Screen. Data for the cln2 rad14 strain (AID 165);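 further: 0% = growth equal to vehicle treated cultures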
- protocolConditions: S. cerevisiae cln2 rad14 strain, at 50.0 µM, stronger effect = higher value
This is part of a sample that, as a whole, favours compounds with a hit. Of some 79,000 tested, about 15% had one in any assay.
propertyMeasured: growth inhibition (%)
Note: unit % is implicit; provide only the numeric part.

Observe how each entry below is paired with its result.
• O=C(NCO)NCOCn1c(=O)n(CO)c(=O)n(CO)c1=O = 29.9
• COc1ccc(NC(=S)NN)cc1 = -6
• CC(=O)Nc1ccc(S(=O)(=O)c2ccc(NC(C)=O)cc2)cc1 = -6.2
• O=C1C=CC(=O)N1CCCCN1C(=O)C=CC1=O = -20.1

Shifting focus to the compound that follows.
The compound listed as Clc1ccc(-c2csc3nc(-c4cccs4)nn23)cc1 has a reported growth inhibition of 1.65

----------
Listing of entries alongside the reported growth inhibition.
- procedureSummary: NCI Yeast Anticancer Drug Screen. Data for the mlh1 rad18 strain (AID 175)
- protocolConditions: S. cerevisiae mlh1 rad18 strain growth inhibition; at 50.0 µM; stronger effect = higher value
About 79,000 compounds went through this panel and 15% of them were active in at least one assay; those are over-represented in the sample as a whole. *1 amine or outer side, *2 acyl side, *3 side chain or, on linkers, in order; H or OH if unused. Where a SMILES comes first, the peptide text is derived from it. [ ]: non-standard residue; d: D form. X8 = C=CCC(O[*:1])C(=O)[*:2]; NMeV = CN[CH](C(=O)O)C(C)C; NMeA = CN[CH](C)C(=O)O; βAla = NCCC(=O)O
Note: unit % is implicit; provide only the numeric part.

* O=C1CC2(C(=O)N1CN1CCOCC1)c1ccccc1-c1ccccc12 | -11.1

The compound listed as CC(=O)N1CCN(c2ccccc2Cl)CC1 has a reported growth inhibition of -22.7

The compound listed as O=S1(=O)C(c2ccc(F)cc2)=C(O)c2cc3ccccc3nc21 has a reported growth inhibition of 23.2

The compound listed as COc1ccc(/C=[N+](\[O-])[C@H](COCc2ccccc2)c2ccccc2)cc1 has a reported growth inhibition of 4.3

The compound listed as BrCCC[n+]1ccc2ccccc2c1-c1nccc2ccccc12 has a reported growth inhibition of 49.5

The compound listed as NC(Cc1ccc(O)c(O)c1)P(=O)(O)O (stereo unspecified) has a reported growth inhibition of -27.8

The compound listed as O=C1CCCCCCCCCCC1 has a reported growth inhibition of 3.1

The compound listed as O=C(CSc1nnc(Cc2ccccc2)o1)Nc1cccc([N+](=O)[O-])c1 has a reported growth inhibition of -17

The compound listed as CCOC(=O)N[C@@H]1C(CC(=O)OC)O[C@H]2OC(C)(C)O[C@H]21 (stereo partly specified) has a reported growth inhibition of 6.25

The compound listed as COc1ccccc1CNCCCCCCNCCSSCCNCCCCCCNCc1ccccc1OC has a reported growth inhibition of 32.5

The compound listed as C=CCC1OC(=O)CCNC(=O)C(C)N(C)C(=O)C(C(C)C)N(C)C(=O)C(C(C)CC)NC(=O)C2CCCN2C1=O (stereo unspecified) (cyclo([X8]PI[NMeV][NMeA][βAla]); configuration not given here) has a reported growth inhibition of 17.8

The compound listed as O=C(O)CCC1(c2ccccc2)NC(=O)NC1=O (stereo unspecified) has a reported growth inhibition of -6.75

The compound listed as CC(=O)Cc1ccco1 has a reported growth inhibition of -10.7

The compound listed as N#C/C(=C/O)c1ccccc1 has a reported growth inhibition of -13.7

The compound listed as O=C(O)C1C2C=CC(O2)C1C(=O)Nc1ccccc1 (stereo unspecified) has a reported growth inhibition of 8.3

The compound listed as COc1cccc(NC(=O)CSc2nnc(Cc3ccccc3)o2)c1 has a reported growth inhibition of -36.5

The compound listed as O=C(NCc1ccccc1)Nc1cccc2c(NC(=O)NCc3ccccc3)cccc12 has a reported growth inhibition of -7.95

----------
Listing of entries alongside the reported growth inhibition.
- procedureSummary: NCI Yeast Anticancer Drug Screen. Data for the sgs1 mgt1 strain (AID 161);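 further: 0% = growth of cultures given vehicle only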
- protocolConditions: S. cerevisiae sgs1 mgt1 strain, at 50.0 µM, stronger effect = higher value
Compounds without any hit were thinned out: in the full panel of roughly 79,000, 15% have a hit.
Note: unit % is implicit; provide only the numeric part.

Observe how each entry below is paired with its result.
- O=C(c1ccccc1)N1C(=S)N=C(Nc2ccccc2)C1=Nc1ccccc1: -9.8
- CCCNc1ncnc2c1ncn2C: -3.55
- Cc1cccc(F)c1C: 4.9
- O=C(Cc1ccc([N+](=O)[O-])cc1)ON1C(=O)CCC1=O: -4.65

The molecule listed as CCN1C(=O)/C(=C\c2coc3ccccc3c2=O)SC1=S has a reported growth inhibition of 0.2

The molecule listed as S=C(Cl)Sc1ccc(-c2ccc(SC(=S)Cl)cc2)cc1 has a reported growth inhibition of -10.4

The molecule listed as CC(=O)NC(Cc1ccccc1)C(=O)NN (centres undefined) has a reported growth inhibition of -11.2

The molecule listed as S=c1c2ccccc2sn1-c1ccccc1 has a reported growth inhibition of 14.9

The molecule listed as CC(=O)Oc1ccc(C(C)(C)C)cc1 has a reported growth inhibition of 1.55

The molecule listed as Cc1ccc(OCCNCCO)cc1 has a reported growth inhibition of 6.3

The molecule listed as O=C(O)C1CCCC2C(O)CCC(O)C12 (centres undefined) has a reported growth inhibition of -1.85

The molecule listed as C=C1C(=O)OC2(C)CCC1CC1OC1(C)CCC=C(C)CCC2O (centres undefined) has a reported growth inhibition of 17.4

The molecule listed as Cc1ccccc1NC(=O)CN1CCCC(C)C1 (centres undefined) has a reported growth inhibition of 0.9

The molecule listed as C[C@@H]1O[C@]2(O)[C@@H]3CCCN3S(=O)(=O)CCN2C1=O has a reported growth inhibition of -16.9

----------
- procedureSummary: NCI Yeast Anticancer Drug Screen. Data for the bub3 strain (AID 167)
- protocolConditions: S. cerevisiae bub3 mutant strain, at 50.0 µM, stronger effect = higher value
About 79,000 compounds went through this panel and 15% of them were active in at least one assay; those are over-represented in the sample as a whole.
propertyMeasured: growth inhibition (%)
Note: unit % is implicit; provide only the numeric part.

Observe how each entry below is paired with its result.
* Cc1cccc(C(=O)c2ccccc2)c1C(=O)O | -9.25
* CC(C)CCCCC(C)(C)OC(=O)NC(N)=O | -17.6
* CC(O)(c1ccc(Cl)cc1)c1ccc(Cl)cc1 | -8.75

Shifting focus to the compound that follows.
The compound listed as CC1=NCC(=O)N1 has a reported growth inhibition of -6.1
